biological target: T1, Human VSIG4-S-Fc (human); experiment: ELISA, Fab P.E. 1:5 on coated antigen;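 also: mouse Fab P.E. samples in 1% skimmed milk PBS, bound to antigen-coated wells for 1 h at room temperature, read as absorbance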
T1 construct: short isoform ECD fused to human Fc1; also called hVSIG4-S
T1 sequence (chain, as listed by the source limits assumed): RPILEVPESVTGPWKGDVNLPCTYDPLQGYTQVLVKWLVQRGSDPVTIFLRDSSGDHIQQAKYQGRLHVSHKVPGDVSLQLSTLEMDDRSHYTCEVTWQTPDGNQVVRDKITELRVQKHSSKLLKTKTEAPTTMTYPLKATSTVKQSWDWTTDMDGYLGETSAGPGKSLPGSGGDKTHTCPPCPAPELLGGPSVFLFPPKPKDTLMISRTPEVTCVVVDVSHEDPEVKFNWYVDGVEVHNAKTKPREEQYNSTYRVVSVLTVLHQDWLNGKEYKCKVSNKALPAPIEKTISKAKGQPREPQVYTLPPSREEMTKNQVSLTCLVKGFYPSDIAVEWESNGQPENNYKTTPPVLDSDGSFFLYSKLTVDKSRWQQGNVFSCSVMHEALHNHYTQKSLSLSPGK
Lab note: compare ELISA OD450 with 4 OD450, writing Satisfied if less and Not satisfied if equal or more.

BINDER | ASSIGNED CLASS
13H11 mouse Fab (periplasmic extract) (Fab, V domains shown, mouse Fab with C-terminal His6-c-myc tag) VH: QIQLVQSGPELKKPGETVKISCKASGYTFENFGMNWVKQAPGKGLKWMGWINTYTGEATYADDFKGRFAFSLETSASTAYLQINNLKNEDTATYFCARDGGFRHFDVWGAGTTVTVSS VL: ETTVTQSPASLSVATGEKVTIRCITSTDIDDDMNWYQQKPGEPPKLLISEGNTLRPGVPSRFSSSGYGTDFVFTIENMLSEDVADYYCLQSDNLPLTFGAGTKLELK | Satisfied
14C05 mouse Fab (periplasmic extract) (Fab, V domains shown, mouse Fab with C-terminal His6-c-myc tag) VH: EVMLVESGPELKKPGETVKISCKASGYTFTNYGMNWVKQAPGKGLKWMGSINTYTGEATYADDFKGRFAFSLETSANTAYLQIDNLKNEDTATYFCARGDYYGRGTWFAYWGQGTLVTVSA VL: ETTVTQSHKFMSTSVGDRVSITCKASQDVSTAVAWYQQKPGQSPKLLIYSASYRYPGVPDRFTGSGSGTDFTFTISSVQAEDLAVYYCQQDYSSPWTFGGGTKLEIK | Not satisfied

Okay, now this binder:
Task item: Consider 16E10 mouse Fab (periplasmic extract) (Fab, V domains shown, mouse Fab with C-terminal His6-c-myc tag) VH: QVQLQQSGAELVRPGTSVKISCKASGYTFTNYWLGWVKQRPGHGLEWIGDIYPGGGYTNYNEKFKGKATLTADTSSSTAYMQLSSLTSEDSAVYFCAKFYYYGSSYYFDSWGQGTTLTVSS VL: DIVLTQSPSSLSVSAGEKVTLSCKSSQSLLNSGNQENYLAWYQQKPGQPPKLLIYGASTRESGVPDRFTGSGSGTDFTLTISSVQAEDLAVYYCQNDHSYPLTFGAGTKLELK . Does its ELISA OD450 lie strictly below 4 OD450?
Reply: Satisfied
